Mono values, listed per item
Organism: Rattus norvegicus
Experiment: Open TG-GATES - Regimen: Daily Repeat
Type: toxicity, organism-based, Sprague-Dawley
Design: regimen Daily Repeat, gender Male, age 6 weeks
Details: in vivo, po, 100 mg/kg, 72 h, tissue Blood, route gavage, dose level Low, time 3 day
property-label: Mono (%)

[[record]]
compound = "O=C(N[C@H](CO)[C@H](O)c1ccc([N+](=O)[O-])cc1)C(Cl)Cl [CHLORAMPHENICOL]"
property_label = "Mono"
measurement_unit = "%"
readout_number = 3.2

[[record]]
compound = "CC(C)(S)[C@@H](N)C(=O)O [PENICILLAMINE]"
property_label = "Mono"
measurement_unit = "%"
readout_number = 2.8

[[record]]
compound = "CCN1CCCC1CNC(=O)c1cc(S(N)(=O)=O)ccc1OC (centres undefined) [SULPIRIDE]"
property_label = "Mono"
measurement_unit = "%"
readout_number = 3

[[record]]
compound = "O=C(O)c1cccnc1 [NIACIN]"
property_label = "Mono"
measurement_unit = "%"
readout_number = 4

